experimental.system: ABL1 (Homo sapiens, UniProt P00519)
Sequence (P00519 whole entry): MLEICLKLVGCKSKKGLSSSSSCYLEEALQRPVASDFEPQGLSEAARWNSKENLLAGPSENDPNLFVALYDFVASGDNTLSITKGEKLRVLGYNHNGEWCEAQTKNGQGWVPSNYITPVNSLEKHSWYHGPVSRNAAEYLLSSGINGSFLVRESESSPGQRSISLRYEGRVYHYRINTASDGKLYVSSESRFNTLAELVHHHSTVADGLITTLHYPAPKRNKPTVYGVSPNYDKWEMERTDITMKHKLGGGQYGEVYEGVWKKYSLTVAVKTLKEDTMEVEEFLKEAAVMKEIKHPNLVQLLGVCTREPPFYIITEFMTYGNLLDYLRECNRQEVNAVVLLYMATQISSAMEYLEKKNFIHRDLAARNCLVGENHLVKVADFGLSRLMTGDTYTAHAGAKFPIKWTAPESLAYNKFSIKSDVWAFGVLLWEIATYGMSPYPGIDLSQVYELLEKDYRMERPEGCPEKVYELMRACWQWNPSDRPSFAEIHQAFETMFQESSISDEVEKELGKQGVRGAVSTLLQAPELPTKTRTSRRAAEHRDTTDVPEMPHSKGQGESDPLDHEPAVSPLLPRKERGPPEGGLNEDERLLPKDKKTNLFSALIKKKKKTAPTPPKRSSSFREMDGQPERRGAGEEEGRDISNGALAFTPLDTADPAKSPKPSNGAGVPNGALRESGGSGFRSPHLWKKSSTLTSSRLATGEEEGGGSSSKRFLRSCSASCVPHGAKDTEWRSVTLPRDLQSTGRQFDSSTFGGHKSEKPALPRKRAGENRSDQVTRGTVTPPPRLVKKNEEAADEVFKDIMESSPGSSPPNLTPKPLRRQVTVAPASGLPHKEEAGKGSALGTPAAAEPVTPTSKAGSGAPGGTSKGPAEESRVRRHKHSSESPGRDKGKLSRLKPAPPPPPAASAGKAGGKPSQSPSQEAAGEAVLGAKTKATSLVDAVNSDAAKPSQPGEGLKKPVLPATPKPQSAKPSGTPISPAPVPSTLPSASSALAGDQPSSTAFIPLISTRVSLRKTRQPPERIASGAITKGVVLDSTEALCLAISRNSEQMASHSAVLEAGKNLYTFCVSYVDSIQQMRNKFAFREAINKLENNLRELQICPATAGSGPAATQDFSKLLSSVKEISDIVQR
test.name: Kinase profiling in vitro, ABL1
condition.parameters: recombinant ABL1, 33P-ATP, 120 min
reported.metric: IC50 (nM)
The reply should be a number in nM, with the unit left off.

Ask: # return recorded IC50 for input `CNCCO/N=C1/C(=C2/C(=O)Nc3ccc(Br)cc32)Nc2ccccc21`
Result: 434

---

experimental.system: JAK2 (Homo sapiens, UniProt O60674)
Sequence (O60674 whole entry, species assumed): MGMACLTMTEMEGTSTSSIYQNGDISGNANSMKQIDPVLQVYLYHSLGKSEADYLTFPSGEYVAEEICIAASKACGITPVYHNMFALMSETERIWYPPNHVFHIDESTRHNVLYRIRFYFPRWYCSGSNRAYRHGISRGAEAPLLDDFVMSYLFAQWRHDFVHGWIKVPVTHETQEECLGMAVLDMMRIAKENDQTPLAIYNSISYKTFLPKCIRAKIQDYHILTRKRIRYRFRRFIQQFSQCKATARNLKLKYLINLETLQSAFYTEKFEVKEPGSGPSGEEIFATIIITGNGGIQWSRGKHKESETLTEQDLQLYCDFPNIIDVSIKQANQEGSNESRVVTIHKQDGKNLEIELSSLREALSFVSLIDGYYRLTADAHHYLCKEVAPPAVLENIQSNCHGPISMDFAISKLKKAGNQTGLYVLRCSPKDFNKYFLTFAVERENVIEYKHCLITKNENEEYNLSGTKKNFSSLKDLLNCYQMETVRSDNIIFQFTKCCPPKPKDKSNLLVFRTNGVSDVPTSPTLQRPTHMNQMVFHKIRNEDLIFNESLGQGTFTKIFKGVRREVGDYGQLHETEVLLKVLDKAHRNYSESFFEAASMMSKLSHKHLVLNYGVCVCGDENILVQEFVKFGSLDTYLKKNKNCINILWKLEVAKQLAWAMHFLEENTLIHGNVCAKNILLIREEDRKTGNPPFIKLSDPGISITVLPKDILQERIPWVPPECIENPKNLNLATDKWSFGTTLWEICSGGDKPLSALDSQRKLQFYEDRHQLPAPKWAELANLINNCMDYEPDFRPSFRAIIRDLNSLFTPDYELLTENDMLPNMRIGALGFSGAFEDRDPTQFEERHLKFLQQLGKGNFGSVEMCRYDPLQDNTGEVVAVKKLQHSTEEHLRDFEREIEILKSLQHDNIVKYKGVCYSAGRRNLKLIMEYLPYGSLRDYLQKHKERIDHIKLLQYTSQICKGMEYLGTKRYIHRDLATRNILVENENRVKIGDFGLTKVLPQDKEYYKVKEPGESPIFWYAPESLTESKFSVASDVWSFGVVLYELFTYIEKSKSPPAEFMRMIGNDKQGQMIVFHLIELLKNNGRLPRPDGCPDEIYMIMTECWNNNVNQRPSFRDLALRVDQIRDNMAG
test.name: Kinase profiling in vitro, JAK2
condition.parameters: recombinant JAK2, 33P-ATP, 120 min
reported.metric: pIC50
For clarity, pIC50 is expressed as the negative log10 of concentration in mol/L.

Ask: # return recorded pIC50 for input CNCCO/N=C1/C(=C2/C(=O)Nc3ccc(Br)cc32)Nc2ccccc21 [5IN-1NH1s]
Result: 6.77
